The reported measurements were obtained from patent US12421229B2.

# subject-of-test: human TLR9 (Homo sapiens)
# test-details: HEK293-Blue-hTLR-9 cells assay
# condition: HEK293-Blue-hTLR9 cells, ODN2006 stimulation, 20 hrs, SEAP reporter; read-out: HEK/hTLR9 IC50
# Procedure: A stable HEK293-Blue-hTLR-9 cell line was purchased from InvivoGen (Cat. #: hkb-htlr9, San Diego, California, USA). These cells were originally designed for studying the stimulation of human TLR9 by monitoring the activation of NF-κB. […] The cell culture supernatant SEAP reporter activity was determined using QUANTI-Blue™ kit (Cat. #: rep-qb1, Invivogen, San Diego, California, USA) at a wavelength of 640 nm, a detection medium that turns purple or blue in the presence of alkaline phosphatase. […]
pIC50: −log10 of the molar value.
observable: pIC50

# example entries with known answers
compound | subject-of-test | test-result
C[C@@H]1CN(c2ccc(C#N)c3ncccc23)C[C@@H]2C[C@@H](c3ccc(CC4CNCCO4)cc3)CCN21 (stereo partly shown) | human TLR9 (Homo sapiens) | 7.02
C[C@@H]1CN(c2ccc(C#N)c3ncccc23)C[C@@H]2C[C@H](c3ccc(N4CCNCC4)nc3)CCN21 [Example 4] | human TLR9 (Homo sapiens) | 7.07

A = C[C@@H]1CN(c2ccc(C#N)c3ncccc23)C[C@H]2C[C@H](c3ccc(N4CCNCC4)nc3)CCN21
B = [2H]c1ccc2c(N3C[C@@H]4C[C@H](N5CCN(c6ccncc6)CC5)CCN4[C@H](C)C3)ccc(C#N)c2n1
Input: Looking at A and B , which one comes out lower in pIC50 terms? // output: label of the selected item
Output: A

----------
# subject-of-test: human TLR8 (Homo sapiens, UniProt Q9NR97)
# Sequence (Q9NR97 27-1041): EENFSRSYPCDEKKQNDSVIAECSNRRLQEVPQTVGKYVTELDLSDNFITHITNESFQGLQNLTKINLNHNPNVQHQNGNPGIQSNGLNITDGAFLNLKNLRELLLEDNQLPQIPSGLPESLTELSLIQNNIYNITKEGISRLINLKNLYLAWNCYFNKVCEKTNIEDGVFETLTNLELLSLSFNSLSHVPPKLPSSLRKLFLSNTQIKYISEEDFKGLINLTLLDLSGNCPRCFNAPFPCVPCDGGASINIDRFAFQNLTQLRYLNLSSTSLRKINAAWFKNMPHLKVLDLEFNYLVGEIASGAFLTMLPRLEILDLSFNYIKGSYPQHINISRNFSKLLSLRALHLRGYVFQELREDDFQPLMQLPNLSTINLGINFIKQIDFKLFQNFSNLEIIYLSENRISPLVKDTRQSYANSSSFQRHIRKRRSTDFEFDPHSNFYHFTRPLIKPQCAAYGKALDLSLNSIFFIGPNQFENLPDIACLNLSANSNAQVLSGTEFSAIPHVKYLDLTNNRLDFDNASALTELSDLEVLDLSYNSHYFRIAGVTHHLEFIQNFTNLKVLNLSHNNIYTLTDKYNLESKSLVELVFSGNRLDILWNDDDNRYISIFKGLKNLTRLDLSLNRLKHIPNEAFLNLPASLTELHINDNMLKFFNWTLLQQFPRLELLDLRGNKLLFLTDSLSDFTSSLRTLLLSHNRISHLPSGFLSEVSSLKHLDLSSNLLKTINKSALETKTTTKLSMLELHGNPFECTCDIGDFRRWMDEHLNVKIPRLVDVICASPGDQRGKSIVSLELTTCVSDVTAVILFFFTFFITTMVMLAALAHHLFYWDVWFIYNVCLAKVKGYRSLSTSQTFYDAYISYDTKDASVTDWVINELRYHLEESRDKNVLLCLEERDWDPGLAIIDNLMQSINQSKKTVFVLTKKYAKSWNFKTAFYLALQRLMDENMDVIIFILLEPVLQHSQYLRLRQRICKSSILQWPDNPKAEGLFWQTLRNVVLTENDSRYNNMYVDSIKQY
# test-details: HEK293-Blue-hTLR-8 cells assay
# condition: HEK293-Blue-hTLR8 cells, R848 stimulation, 20 hrs, SEAP reporter; read-out: HEK/hTLR8 IC50
observable: IC50 (nM)

# example entries with known answers
compound | subject-of-test | unit-text | test-result
C[C@@H]1CN(c2ccc(C#N)c3ncccc23)C[C@@H]2C[C@@H](c3ccc(C4CNCCO4)cc3)CCN21 (stereo partly drawn) | human TLR8 (Homo sapiens, UniProt Q9NR97) | nM | 14
[2H]c1ccc2c(N3C[C@@H]4C[C@H](Nc5ccc(C[C@@H]6CNCCO6)cc5)CCN4[C@H](C)C3)ccc(C#N)c2n1 | human TLR8 (Homo sapiens, UniProt Q9NR97) | nM | 49
CO[C@@H]1CN(c2ccc(C3CN([C@@H]4CCN5[C@@H](C4)CN(c4ccc(C#N)c6ncccc46)C[C@H]5C)C3)cc2)C[C@H]1N | human TLR8 (Homo sapiens, UniProt Q9NR97) | nM | 69
CO[C@H]1CN(c2ccc([C@@H]3CCN4[C@@H](C3)CN(c3ccc(C#N)c5ncccc35)C[C@H]4C)cn2)C[C@H]1N | human TLR8 (Homo sapiens, UniProt Q9NR97) | nM | 45

A = C[C@@H]1CN(c2ccc(C#N)c3ncccc23)C[C@@H]2C[C@H](Nc3ccc([C@H]4CNCCO4)cc3)CCN21
B = C[C@@H]1CN(c2ccc(C#N)c3ncccc23)C[C@@H]2C[C@@H](Oc3cnc(N4CCNCC4)nc3)CCN21
Input: So which one has the bigger IC50 here, A or B ? // output: label of the selected item
Output: A

----------
# subject-of-test: human TLR9 (Homo sapiens)
# test-details: HEK293-Blue-hTLR-9 cells assay
# condition: HEK293-Blue-hTLR9 cells, ODN2006 stimulation, 20 hrs, SEAP reporter; read-out: HEK/hTLR9 IC50
pIC50: −log10 of the molar value.
observable: pIC50

A = C[C@@H]1CN(c2ccc(C#N)c3ncccc23)C[C@@H]2C[C@H](c3ccc(N4CCNCC4)nc3)CCN21 (stereo in doubt) [Example 2]
B = CO[C@H]1CN(c2ccc(C3CN([C@@H]4CCN5[C@@H](C4)CN(c4ccc(C#N)c6ncccc46)C[C@H]5C)C3)cc2)C[C@H]1N
Input: So which one has the bigger pIC50 here, A or B ? // output: label of the selected item
Output: B
(B: 7.48, A: 7.09)

P = CO[C@@H]1CN(c2ccc(C3CN([C@@H]4CCN5[C@@H](C4)CN(c4ccc(C#N)c6ncccc46)C[C@H]5C)C3)cc2)C[C@H]1N
Q = C[C@@H]1CN(c2ccc(C#N)c3ncccc23)C[C@@H]2C[C@@H](Oc3ccc(N4CCNCC4)nc3)CCN21
Input: Looking at P and Q , which one comes out lower in pIC50 terms? // output: label of the selected item
Output: P

----------
# subject-of-test: CYP3A4 (Homo sapiens)
# Construct: tissue BD-Gentest 452117; host or cells: human liver microsomes
# Sequence (P08684 whole entry): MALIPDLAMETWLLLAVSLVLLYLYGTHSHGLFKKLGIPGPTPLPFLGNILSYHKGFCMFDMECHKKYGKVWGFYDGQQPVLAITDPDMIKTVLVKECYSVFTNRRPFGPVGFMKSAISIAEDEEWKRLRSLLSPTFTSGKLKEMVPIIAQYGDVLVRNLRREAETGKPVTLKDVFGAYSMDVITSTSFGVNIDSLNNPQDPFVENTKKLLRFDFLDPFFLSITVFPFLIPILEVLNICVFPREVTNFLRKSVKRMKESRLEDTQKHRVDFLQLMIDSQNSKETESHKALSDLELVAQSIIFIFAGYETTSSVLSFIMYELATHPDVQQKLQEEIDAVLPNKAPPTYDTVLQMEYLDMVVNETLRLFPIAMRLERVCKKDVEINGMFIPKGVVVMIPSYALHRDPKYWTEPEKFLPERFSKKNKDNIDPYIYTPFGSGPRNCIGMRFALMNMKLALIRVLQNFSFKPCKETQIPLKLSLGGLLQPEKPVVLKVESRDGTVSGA
# test-details: CYP inhibition assay in human liver microsome, CYP3A4
# Assay type: in vitro ADME
# condition: percentage inhibition, substrate Midazolam 5 μM
observable: CYP (%) 3A4

compound | subject-of-test | observable | test-result
C[C@@H]1CN(c2ccc(C#N)c3ncccc23)C[C@@H]2C[C@H](c3ccc(N4CCNCC4)nc3)CCN21 (stereo in doubt) | CYP3A4 (Homo sapiens) | CYP (%) 3A4 | 38
[2H]c1ccc2c(N3C[C@@H]4C[C@H](N5CCN(c6ccncc6)CC5)CCN4[C@H](C)C3)ccc(C#N)c2n1 | CYP3A4 (Homo sapiens) | CYP (%) 3A4 | 32.5
C[C@@H]1CN(c2ccc(C#N)c3ncccc23)C[C@@H]2C[C@H](c3ccc(N4C[C@@H](N)[C@@H](F)C4)nc3)CCN21 | CYP3A4 (Homo sapiens) | CYP (%) 3A4 | 30
CO[C@H]1CN(c2ccc([C@@H]3CCN4[C@@H](C3)CN(c3ccc(C#N)c5ncccc35)C[C@H]4C)cn2)C[C@H]1N | CYP3A4 (Homo sapiens) | CYP (%) 3A4 | 37.5

----------
# subject-of-test: UniProt:Q9NR97
# test-details: HEK293-Blue-hTLR-8 cells assay
# condition: HEK293-Blue-hTLR8 cells, R848 stimulation, 20 hrs, SEAP reporter; read-out: HEK/hTLR8 IC50
pIC50: −log10 of the molar value.
observable: pIC50

molecule | pIC50
[2H]c1ccc2c(N3C[C@@H]4C[C@H](Nc5ccc(C[C@H]6CNCCO6)cc5)CCN4[C@H](C)C3)ccc(C#N)c2n1 | 7.40
C[C@@H]1CN(c2ccc(C#N)c3ncccc23)C[C@@H]2C[C@@H](Oc3ccc(N4CCNCC4)cn3)CCN21 | 7.82
C[C@@H]1CN(c2ccc(C#N)c3ncccc23)C[C@@H]2CC(c3ccc(C[C@@H]4CNCCO4)cc3)CCN21 (stereo in doubt) | 7.52

a = C[C@@H]1CN(c2ccc(C#N)c3ncccc23)C[C@@H]2C[C@H](c3ccc([C@@H]4CNCCO4)cc3)CCN21
b = CO[C@@H]1CN(c2ccc([C@@H]3CCN4[C@@H](C3)CN(c3ccc(C#N)c5ncccc35)C[C@H]4C)cn2)C[C@@H]1N
c = CO[C@H]1CN(c2ccc(C3CN([C@@H]4CCN5[C@@H](C4)CN(c4ccc(C#N)c6ncccc46)C[C@H]5C)C3)cc2)C[C@H]1N
Input: Provide the items ranked by increasing pIC50. // respond by listing labels in the order requested
Output: b, c, a

----------
# subject-of-test: UniProt Q9NR96
# test-details: HEK293-Blue-hTLR-9 cells assay
# condition: HEK293-Blue-hTLR9 cells, ODN2006 stimulation, 20 hrs, SEAP reporter; read-out: HEK/hTLR9 IC50
observable: IC50 (nM)

compound | IC50 [nM]
C[C@@H]1CN(c2ccc(C#N)c3ncccc23)C[C@@H]2C[C@@H](Oc3cncc(N4CCNCC4)c3)CCN21 | 89
C[C@@H]1CN(c2ccc(C#N)c3ncccc23)C[C@@H]2CC(c3ccc(C[C@@H]4CNCCO4)cc3)CCN21 (stereo in doubt) | 78
C[C@@H]1CN(c2ccc(C#N)c3ncccc23)C[C@@H]2C[C@H](c3ccc(N4C[C@@H](N)[C@@H](F)C4)nc3)CCN21 | 82
CO[C@@H]1CN(c2ccc([C@@H]3CCN4[C@@H](C3)CN(c3ccc(C#N)c5ncccc35)C[C@H]4C)cn2)C[C@@H]1N | 94

----------
# subject-of-test: human TLR9 (Homo sapiens, UniProt Q9NR96)
# Sequence (Q9NR96 26-1032): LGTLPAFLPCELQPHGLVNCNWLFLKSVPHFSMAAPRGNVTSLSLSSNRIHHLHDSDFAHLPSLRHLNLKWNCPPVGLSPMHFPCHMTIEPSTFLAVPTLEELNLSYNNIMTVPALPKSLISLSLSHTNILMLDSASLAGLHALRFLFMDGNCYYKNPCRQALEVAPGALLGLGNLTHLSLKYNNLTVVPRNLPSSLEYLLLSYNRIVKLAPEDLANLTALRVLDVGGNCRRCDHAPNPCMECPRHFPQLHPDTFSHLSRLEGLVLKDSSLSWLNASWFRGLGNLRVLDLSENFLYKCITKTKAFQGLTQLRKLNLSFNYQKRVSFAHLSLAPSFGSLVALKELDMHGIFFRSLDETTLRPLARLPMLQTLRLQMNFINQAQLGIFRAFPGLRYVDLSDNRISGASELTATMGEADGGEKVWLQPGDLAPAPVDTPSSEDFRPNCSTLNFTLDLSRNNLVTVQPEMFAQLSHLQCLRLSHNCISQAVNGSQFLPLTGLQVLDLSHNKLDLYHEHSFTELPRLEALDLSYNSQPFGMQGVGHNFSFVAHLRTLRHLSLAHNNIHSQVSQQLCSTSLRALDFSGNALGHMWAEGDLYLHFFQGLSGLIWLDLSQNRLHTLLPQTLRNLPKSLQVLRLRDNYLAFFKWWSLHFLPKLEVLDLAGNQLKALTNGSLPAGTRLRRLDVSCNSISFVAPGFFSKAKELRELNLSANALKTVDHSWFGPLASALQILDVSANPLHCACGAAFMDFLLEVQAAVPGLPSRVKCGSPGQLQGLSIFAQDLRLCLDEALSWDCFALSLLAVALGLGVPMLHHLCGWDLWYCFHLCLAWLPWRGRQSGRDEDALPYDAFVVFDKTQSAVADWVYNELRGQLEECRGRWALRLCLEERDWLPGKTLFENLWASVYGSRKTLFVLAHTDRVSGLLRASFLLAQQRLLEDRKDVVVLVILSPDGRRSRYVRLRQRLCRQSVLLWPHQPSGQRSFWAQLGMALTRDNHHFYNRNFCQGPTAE
# test-details: HEK293-Blue-hTLR-9 cells assay
# condition: HEK293-Blue-hTLR9 cells, ODN2006 stimulation, 20 hrs, SEAP reporter; read-out: HEK/hTLR9 IC50
pIC50: −log10 of the molar value.
observable: pIC50

molecule | pIC50
CO[C@@H]1CN(c2ccc([C@@H]3CCN4[C@@H](C3)CN(c3ccc(C#N)c5ncccc35)C[C@H]4C)cn2)C[C@H]1N | 7.11
C[C@@H]1CN(c2ccc(C#N)c3ncccc23)C[C@@H]2C[C@@H](Oc3ccc(N4CCNCC4)cn3)CCN21 | 7.05
C[C@@H]1CN(c2ccc(C#N)c3ncccc23)C[C@@H]2C[C@H](c3ccc(N4CCOC[C@@H](N)C4)nc3)CCN21 | 7.12
C[C@@H]1CN(c2ccc(C#N)c3ncccc23)C[C@@H]2C[C@@H](c3ccc(C4CNCCO4)cc3)CCN21 (some centres unmarked) | 7.09
